# Tested on: HEK293T cells
# Type: cell-based, human
# settings: single agent, induction 24 h post transfection, FIG. 2
measured-parameter: concentration giving optimum vector production (mM)
One number for each entry, in mM.

compound="CCCC(CCC)C(=O)[O-].[Na+] [sodium valproate]" study_target="HEK293T cells" recorded_value=10
compound="O=C(CCCCCCC(=O)Nc1ccccc1)NO [SAHA, suberanilohydroxamic acid]" study_target="HEK293T cells" recorded_value=0.0025
compound="CCCC(=O)[O-].[Na+] [sodium butyrate]" study_target="HEK293T cells" recorded_value=5

Next:
Give its concentration giving optimum vector production value. Item: CCCCC(=O)O
20

From: patent US20230183742A1
